- assaySystem: N15 TCR
- Type: binding, mouse
- measurementConditions: read-out: monomeric affinity of the N15 TCR for peptide/K^b
pKd: −log10 of the molar value.
observable: pKd

**Query** Give recorded pKd. RGYVYQGL [VSV8]
**Result** < 3.70

Source: patent US20030082156A1
